This listing pairs compounds with measured pIC50.
# system under test: full-length human Mineralocorticoid Receptor (MR) (Homo sapiens, UniProt P08235)
# Construct: host or cells: PathHunter CHO-K1 cells
# Sequence (P08235 whole entry): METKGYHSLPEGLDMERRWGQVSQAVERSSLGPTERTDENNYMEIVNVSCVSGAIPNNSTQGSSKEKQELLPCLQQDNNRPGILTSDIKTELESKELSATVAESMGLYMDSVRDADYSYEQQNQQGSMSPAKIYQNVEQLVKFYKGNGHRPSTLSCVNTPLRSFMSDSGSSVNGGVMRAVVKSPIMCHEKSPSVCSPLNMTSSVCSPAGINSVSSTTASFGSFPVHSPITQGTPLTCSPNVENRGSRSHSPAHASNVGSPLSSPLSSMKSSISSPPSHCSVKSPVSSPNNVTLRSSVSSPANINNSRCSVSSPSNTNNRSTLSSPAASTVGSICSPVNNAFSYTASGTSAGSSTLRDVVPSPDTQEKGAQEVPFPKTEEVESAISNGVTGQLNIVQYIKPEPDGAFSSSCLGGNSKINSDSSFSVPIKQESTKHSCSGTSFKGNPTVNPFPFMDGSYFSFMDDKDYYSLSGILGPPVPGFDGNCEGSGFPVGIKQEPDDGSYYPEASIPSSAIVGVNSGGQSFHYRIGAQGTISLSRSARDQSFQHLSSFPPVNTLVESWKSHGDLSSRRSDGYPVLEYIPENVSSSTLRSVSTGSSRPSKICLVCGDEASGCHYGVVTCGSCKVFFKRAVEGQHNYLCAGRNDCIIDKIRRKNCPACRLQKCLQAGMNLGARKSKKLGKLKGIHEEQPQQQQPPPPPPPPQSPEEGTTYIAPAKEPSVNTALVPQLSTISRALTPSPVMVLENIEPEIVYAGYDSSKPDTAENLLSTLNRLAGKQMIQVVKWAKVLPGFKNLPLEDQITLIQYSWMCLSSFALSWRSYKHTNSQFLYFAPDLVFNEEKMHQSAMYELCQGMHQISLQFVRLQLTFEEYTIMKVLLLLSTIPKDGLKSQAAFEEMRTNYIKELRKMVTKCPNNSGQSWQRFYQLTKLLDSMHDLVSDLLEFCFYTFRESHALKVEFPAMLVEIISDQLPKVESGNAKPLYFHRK
# test description: human MR NH Pro assay (PathHunter Protein:Protein interaction assay), MR antagonist activity
# Type: cell-based
# assay setup: PathHunter CHO-K1 cells overexpressing human MR; aldosterone about 0.3 nM; 6 hours at 37° C.; luminescence; read-out: Primary Assay IP rating (IP = inflection point for a given dose-response titration curve)
pIC50: −log10 of the molar value.

INSERT INTO assay_data (compound, assay_readout, result) VALUES
  ('CCC(c1ccc(Cl)cc1)(n1ncc2c(NS(=O)(=O)N(C)C)cccc21)C(C)(C)O (stereo not drawn)', 'pIC50', '6.30 to 7.00'),
  ('CCC(CCC(F)(F)F)(c1ccc(Cl)cc1)n1ccc2c(NS(C)(=O)=O)cccc21 (single isomer, unassigned)', 'pIC50', '> 7.00'),
  ('CC[C@@](c1ccc(Cl)cc1)(c1noc(C)n1)n1ccc2c(NS(C)(=O)=O)cccc21', 'pIC50', '> 7.00'),
  ('CCC(/C(C)=C/C#N)(c1ccc(Cl)cc1)n1ccc2c(NS(C)(=O)=O)cccc21 (stereo not drawn)', 'pIC50', '> 7.00'),
  ('CCC(C(=O)NCC#N)(c1ccc(Cl)cc1)n1ccc2c(NS(C)(=O)=O)cccc21 (stereo not drawn) [Compound 51]', 'pIC50', '> 7.00'),
  ('CS(=O)(=O)Nc1cccc2c1ccn2C(CC#N)(C(=O)NCC(F)(F)F)c1ccc(Cl)cc1 (stereo not drawn)', 'pIC50', '6.30 to 7.00'),
  ('CCC(C(C)=O)(c1ccc(Cl)cc1)n1ncc2c(NS(=O)(=O)NC)cccc21 (stereo not drawn)', 'pIC50', '> 7.00'),
  ('CCC(C(=O)OC(C)(C)C)(c1ccc(Cl)cc1)n1ccc2c(NS(C)(=O)=O)cccc21 (stereo not drawn)', 'pIC50', '6.30 to 7.00'),
  ('CCC(c1ccc(Cl)cc1)(C(C)N)n1ccc2c(NS(C)(=O)=O)cccc21 (single isomer, unassigned)', 'pIC50', '> 7.00'),
  ('CCC(CCC#N)(c1ccc(Cl)cc1)n1ccc2c(NS(C)(=O)=O)cc(F)cc21 (single isomer, unassigned) [Compound 142]', 'pIC50', '> 7.00');

Give recorded pIC50 with full-length human Mineralocorticoid Receptor (MR) (Homo sapiens, UniProt P08235) for the following compound: CC[C@@](c1ccc(Cl)cc1)(c1noc(-c2ccc(OC)cc2)n1)n1ccc2c(NS(C)(=O)=O)cccc21
> 7.00

Query the reported pIC50 for full-length human Mineralocorticoid Receptor (MR) (Homo sapiens, UniProt P08235); item: CNC(=O)C(CC1CC1)(c1ccc(Cl)cc1)n1ccc2c(NS(C)(=O)=O)cccc21 (stereo not drawn)
6.30 to 7.00

Please tell me: pIC50 of CCC(/C=C/C#N)(c1ccc(Cl)cc1)n1ncc2c(NS(C)(=O)=O)cccc21 (stereo not drawn) , system full-length human Mineralocorticoid Receptor (MR) (Homo sapiens, UniProt P08235)?
> 7.00
